Values compiled from ChEMBL document CHEMBL4402591.

ASSAYED TARGET: Aldehyde dehydrogenase 1A1 (Homo sapiens, UniProt P00352)
Sequence (P00352 whole entry): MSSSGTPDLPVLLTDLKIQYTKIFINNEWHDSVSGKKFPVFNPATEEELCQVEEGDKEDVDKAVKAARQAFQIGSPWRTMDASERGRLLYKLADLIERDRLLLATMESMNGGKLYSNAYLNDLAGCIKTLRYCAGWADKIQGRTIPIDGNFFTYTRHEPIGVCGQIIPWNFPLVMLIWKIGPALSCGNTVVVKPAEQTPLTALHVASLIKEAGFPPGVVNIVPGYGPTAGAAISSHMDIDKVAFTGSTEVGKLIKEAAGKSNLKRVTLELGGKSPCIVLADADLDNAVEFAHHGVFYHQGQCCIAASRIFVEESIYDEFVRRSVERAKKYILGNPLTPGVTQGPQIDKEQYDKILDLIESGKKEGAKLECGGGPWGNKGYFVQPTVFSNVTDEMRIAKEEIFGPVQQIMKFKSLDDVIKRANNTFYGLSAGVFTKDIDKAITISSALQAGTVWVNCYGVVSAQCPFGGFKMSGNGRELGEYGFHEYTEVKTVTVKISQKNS
PROTOCOL: Inhibition of recombinant human 6His-tagged ALDH1A1 expressed in Escherichia coli BL21(DE3) using acetaldehyde as substrate preincubated for 5 mins followed by substrate addition by spectrometric assay
QUANTITY NAME: IC50 (µM)

Some compounds with recorded IC50:
1) c1ccc(-c2ccc3nc(-c4ccccc4)cn3c2)cc1: 19.6
2) Clc1ccc(-c2ccc3nc(-c4ccccc4)cn3c2)cc1: 68.8
3) COc1ccc(-c2cn3cc(-c4cc(OC)cc(OC)c4)ccc3n2)cc1: 198

A = COC(=O)c1ccc(-c2ccc3nc(-c4ccccc4)cn3c2)cc1
B = Clc1ccc(-c2ccc3nc(-c4ccc(Br)cc4)cn3c2)cc1
Incoming: Could you tell me which of these two has the smaller IC50 figure? First: A Second: B Response format: the label of the selected entry.
Outgoing: B
